SYSTEM: Casein kinase 1, delta tv1 (Sus scrofa)
Sequence (M3VH47 whole entry): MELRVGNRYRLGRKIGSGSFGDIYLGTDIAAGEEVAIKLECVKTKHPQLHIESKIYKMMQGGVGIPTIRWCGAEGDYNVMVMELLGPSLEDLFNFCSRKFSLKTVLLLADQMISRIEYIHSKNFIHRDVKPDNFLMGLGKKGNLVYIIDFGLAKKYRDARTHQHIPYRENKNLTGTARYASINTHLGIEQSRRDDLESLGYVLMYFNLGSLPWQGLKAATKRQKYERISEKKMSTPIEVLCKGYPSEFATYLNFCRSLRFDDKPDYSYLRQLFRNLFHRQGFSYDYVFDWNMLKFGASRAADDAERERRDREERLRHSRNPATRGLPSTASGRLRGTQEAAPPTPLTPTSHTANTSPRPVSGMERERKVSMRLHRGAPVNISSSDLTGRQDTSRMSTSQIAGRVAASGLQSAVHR
PROCEDURE DETAILS: Inhibition of porcine brain CK-1delta using RRKHAAIGpSAYSITA peptide as substrate incubated for 30 mins in presence of [gamma-33P]-ATP by scintillation counting method
READOUT KIND: IC50 (nM)
The answer is to be given in nM; state only the numeric part.

Request: Give IC50 for Nc1nccc(-c2c(-c3ccc(F)cc3)ncn2C2CCCCC2)n1 tested on Casein kinase 1, delta tv1 (Sus scrofa).
Response: 7.7

====

SYSTEM: Casein kinase I isoform delta (Homo sapiens)
Sequence (P48730 whole entry, canonical isoform): as the sequence (M3VH47 whole entry) above, with A340V, A401P, A406S, A412V counted along it
PROCEDURE DETAILS: Inhibition of full length recombinant human GST-tagged CSNK1D expressed in baculovirus expression system using casein as substrate incubated for 10 mins in presence of ATP by KinaseGlo luminescence assay
READOUT KIND: IC50 (µM)
The answer is to be given in µM; state only the numeric part.

Request: Respond only with IC50 recorded for CCn1ccc2c3c(=O)cc(-c4cccc5ccccc45)[nH]c3ccc21
Response: 15.2

Request: Respond only with IC50 recorded for Oc1cc(-c2cccc(Br)c2)nc2ccc3[nH]ccc3c12
Response: 13
